Measured IC50, listed per entry for reference.
- SYSTEM_NAME: Collagenase 3 (Homo sapiens, UniProt P45452)

| COMPOUND | IC50 [nM] |
| --- | --- |
| CC1(C)C[C@@H](O)CN(S(=O)(=O)c2ccc(OCc3ccc(F)cc3Cl)cc2)[C@H]1C(=O)NO | 0.5 |
| CCc1ccccc1COc1ccc(S(=O)(=O)N2C[C@H](O)CC(C)(C)[C@@H]2C(=O)NO)cc1 | 36 |
| CC1(C)C[C@@H](O)CN(S(=O)(=O)c2ccc(OCc3nccc4ccccc34)cc2)[C@H]1C(=O)NO | 53 |
| CC1(C)C[C@@H](O)CN(S(=O)(=O)c2ccc(OCc3ccnc4ccccc34)cc2)[C@H]1C(=O)NO | 7.8 |

----------
Measured pIC50, listed per entry for reference.
- MEASUREMENT_PROTOCOL: Inhibitory concentration against Aggrecanase
pIC50: −log10 of the molar value.

| COMPOUND | pIC50 |
| --- | --- |
| Cc1ccc(F)cc1COc1ccc(S(=O)(=O)N2C[C@H](O)CC[C@@H]2C(=O)NO)cc1 | 6.84 |
| Cc1c(F)cccc1COc1ccc(S(=O)(=O)N2C[C@H](O)CC(C)(C)[C@@H]2C(=O)NO)cc1 | 8.41 |
| Cc1cc(F)ccc1COc1ccc(S(=O)(=O)N2C[C@H](O)CC(C)(C)[C@@H]2C(=O)NO)cc1 | 8.57 |
| CCc1ccccc1COc1ccc(S(=O)(=O)N2C[C@H](O)CC(C)(C)[C@@H]2C(=O)NO)cc1 | 7.17 |
| Cc1ncccc1COc1ccc(S(=O)(=O)N2C[C@H](O)CC(C)(C)[C@@H]2C(=O)NO)cc1 | 7.04 |
| CC1(C)C[C@@H](O)CN(S(=O)(=O)c2ccc(OCc3ccnc4ccccc34)cc2)[C@H]1C(=O)NO | 7.82 |

----------
Sequence of the target: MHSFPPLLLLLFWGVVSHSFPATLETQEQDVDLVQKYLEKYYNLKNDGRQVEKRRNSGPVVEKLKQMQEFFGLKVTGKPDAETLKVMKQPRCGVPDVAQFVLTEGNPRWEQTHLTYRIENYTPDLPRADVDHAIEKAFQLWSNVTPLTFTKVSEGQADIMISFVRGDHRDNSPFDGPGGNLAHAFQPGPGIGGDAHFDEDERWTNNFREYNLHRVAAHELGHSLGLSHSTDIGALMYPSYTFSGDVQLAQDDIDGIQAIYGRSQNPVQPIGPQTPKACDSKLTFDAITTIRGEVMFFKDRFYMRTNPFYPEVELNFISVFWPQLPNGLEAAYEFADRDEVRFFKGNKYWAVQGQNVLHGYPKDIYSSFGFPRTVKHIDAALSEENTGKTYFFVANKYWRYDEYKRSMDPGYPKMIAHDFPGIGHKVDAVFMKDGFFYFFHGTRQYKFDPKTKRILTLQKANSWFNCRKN
MEASUREMENT_LABEL: log10 IC50 (log10 of the value in nM)

| COMPOUND | READOUT_NUMBER |
| --- | --- |
| CC1(C)C[C@@H](O)CN(S(=O)(=O)c2ccc(OCc3ccnc4ccccc34)cc2)[C@H]1C(=O)NO | 2.23 |
| Cc1cc(F)ccc1COc1ccc(S(=O)(=O)N2C[C@H](O)CC(C)(C)[C@@H]2C(=O)NO)cc1 | 2.41 |
| Cc1ccc(F)cc1COc1ccc(S(=O)(=O)N2C[C@H](O)CC(C)(C)[C@@H]2C(=O)NO)cc1 | 2.90 |
| CC(C)c1ccccc1COc1ccc(S(=O)(=O)N2C[C@H](O)CC(C)(C)[C@@H]2C(=O)NO)cc1 | 3.36 |
| CC1(C)C[C@@H](O)CN(S(=O)(=O)c2ccc(OCc3ccc(F)cc3Cl)cc2)[C@H]1C(=O)NO | 2.77 |
| CC1(C)C[C@@H](O)CN(S(=O)(=O)c2ccc(OCc3nccc4ccccc34)cc2)[C@H]1C(=O)NO | 2.46 |
| Cc1c(F)cccc1COc1ccc(S(=O)(=O)N2C[C@H](O)CC(C)(C)[C@@H]2C(=O)NO)cc1 | 2.83 |

----------
- SYSTEM_NAME: Disintegrin and metalloproteinase domain-containing protein 17 (Homo sapiens, UniProt P78536)
- Sequence (P78536 whole entry, the tested form may be a part): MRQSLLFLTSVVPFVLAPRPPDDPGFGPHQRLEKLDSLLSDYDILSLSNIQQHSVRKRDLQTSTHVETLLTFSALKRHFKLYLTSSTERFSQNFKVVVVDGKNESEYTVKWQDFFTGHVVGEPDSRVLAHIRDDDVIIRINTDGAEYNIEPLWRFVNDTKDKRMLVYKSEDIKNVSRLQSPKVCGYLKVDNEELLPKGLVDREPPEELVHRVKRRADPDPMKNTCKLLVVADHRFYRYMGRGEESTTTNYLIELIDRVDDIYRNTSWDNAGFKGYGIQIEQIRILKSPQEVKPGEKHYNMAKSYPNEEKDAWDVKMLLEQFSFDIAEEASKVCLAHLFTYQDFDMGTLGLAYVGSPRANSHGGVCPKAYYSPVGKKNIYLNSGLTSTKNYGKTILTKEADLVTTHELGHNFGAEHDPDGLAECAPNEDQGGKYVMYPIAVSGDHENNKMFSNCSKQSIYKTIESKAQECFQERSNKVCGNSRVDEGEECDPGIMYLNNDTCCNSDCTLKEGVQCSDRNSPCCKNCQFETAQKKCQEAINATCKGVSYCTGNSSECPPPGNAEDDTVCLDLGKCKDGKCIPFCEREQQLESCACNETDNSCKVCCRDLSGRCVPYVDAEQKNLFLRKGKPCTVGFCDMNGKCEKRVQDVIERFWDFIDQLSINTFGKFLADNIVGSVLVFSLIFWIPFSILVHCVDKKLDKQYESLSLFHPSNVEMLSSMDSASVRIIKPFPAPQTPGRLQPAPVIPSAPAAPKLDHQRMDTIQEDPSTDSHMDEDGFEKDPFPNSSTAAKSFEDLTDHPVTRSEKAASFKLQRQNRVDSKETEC
pIC50: −log10 of the molar value.
MEASUREMENT_LABEL: pIC50

| COMPOUND | MEASUREMENT_LABEL | READOUT_NUMBER |
| --- | --- | --- |
| Cc1ccc(F)cc1COc1ccc(S(=O)(=O)N2C[C@H](O)CC[C@@H]2C(=O)NO)cc1 | pIC50 | 8.21 |
| Cc1c(F)cccc1COc1ccc(S(=O)(=O)N2C[C@H](O)CC(C)(C)[C@@H]2C(=O)NO)cc1 | pIC50 | 7.77 |
| Cc1cnsc1COc1ccc(S(=O)(=O)N2C[C@H](O)CC(C)(C)[C@@H]2C(=O)NO)cc1 | pIC50 | 7.80 |
| Cc1ccccc1COc1ccc(S(=O)(=O)N2C[C@H](O)CC(C)(C)[C@@H]2C(=O)NO)cc1 | pIC50 | 8.14 |
| Cc1cccc(COc2ccc(S(=O)(=O)N3C[C@H](O)CC(C)(C)[C@@H]3C(=O)NO)cc2)c1 | pIC50 | 7.92 |
| Cc1ccc(F)cc1COc1ccc(S(=O)(=O)N2C[C@H](O)CC(C)(C)[C@@H]2C(=O)NO)cc1 | pIC50 | 8.14 |
| Cc1cc(F)ccc1COc1ccc(S(=O)(=O)N2C[C@H](O)CC(C)(C)[C@@H]2C(=O)NO)cc1 | pIC50 | 8.28 |
| CC(C)c1ccccc1COc1ccc(S(=O)(=O)N2C[C@H](O)CC(C)(C)[C@@H]2C(=O)NO)cc1 | pIC50 | 7.92 |
| CCc1ccccc1COc1ccc(S(=O)(=O)N2C[C@H](O)CC(C)(C)[C@@H]2C(=O)NO)cc1 | pIC50 | 8.17 |
| CC1(C)C[C@@H](O)CN(S(=O)(=O)c2ccc(OCc3cccc(Br)c3)cc2)[C@H]1C(=O)NO | pIC50 | 7.82 |
| Cc1nscc1COc1ccc(S(=O)(=O)N2C[C@H](O)CC(C)(C)[C@@H]2C(=O)NO)cc1 | pIC50 | 7.92 |
| CC1(C)C[C@@H](O)CN(S(=O)(=O)c2ccc(OCc3nccc4ccccc34)cc2)[C@H]1C(=O)NO | pIC50 | 8.00 |
| Cc1ncccc1COc1ccc(S(=O)(=O)N2C[C@H](O)CC(C)(C)[C@@H]2C(=O)NO)cc1 | pIC50 | 8.17 |
| CC1(C)C[C@@H](O)CN(S(=O)(=O)c2ccc(OCc3ccccc3Br)cc2)[C@H]1C(=O)NO | pIC50 | 7.96 |
| CC1(C)C[C@@H](O)CN(S(=O)(=O)c2ccc(OCc3ccc(Cl)cc3Cl)cc2)[C@H]1C(=O)NO | pIC50 | 7.72 |
| Cc1ccc(COc2ccc(S(=O)(=O)N3C[C@H](O)CC(C)(C)[C@@H]3C(=O)NO)cc2)cc1 | pIC50 | 7.96 |
| CC1(C)C[C@@H](O)CN(S(=O)(=O)c2ccc(OCc3ccc(Br)cc3)cc2)[C@H]1C(=O)NO | pIC50 | 8.00 |

----------
pIC50: −log10 of the molar value.
Reported pIC50, Collagenase 3 (Homo sapiens, UniProt P45452).
MEASUREMENT_LABEL: pIC50

| COMPOUND | MEASUREMENT_LABEL | READOUT_NUMBER |
| --- | --- | --- |
| Cc1ccccc1COc1ccc(S(=O)(=O)N2C[C@H](O)CC(C)(C)[C@@H]2C(=O)NO)cc1 | pIC50 | 7.85 |
| Cc1cc(F)ccc1COc1ccc(S(=O)(=O)N2C[C@H](O)CC(C)(C)[C@@H]2C(=O)NO)cc1 | pIC50 | 8.46 |
| CC(C)c1ccccc1COc1ccc(S(=O)(=O)N2C[C@H](O)CC(C)(C)[C@@H]2C(=O)NO)cc1 | pIC50 | 6.73 |

----------
- MEASUREMENT_PROTOCOL: Percent inhibition against Aggrecanase at 500 nM
Given measured inhibition, output criterion met if it is greater than or equal to 60% and criterion not met if not.

| COMPOUND | LABEL_VALUE |
| --- | --- |
| Cc1ccc(COc2ccc(S(=O)(=O)N3C[C@H](O)CC(C)(C)[C@@H]3C(=O)NO)cc2)cc1 | criterion not met |
| CC(C)c1ccccc1COc1ccc(S(=O)(=O)N2C[C@H](O)CC(C)(C)[C@@H]2C(=O)NO)cc1 | criterion met |
| Cc1cnsc1COc1ccc(S(=O)(=O)N2C[C@H](O)CC(C)(C)[C@@H]2C(=O)NO)cc1 | criterion not met |
| Cc1nscc1COc1ccc(S(=O)(=O)N2C[C@H](O)CC(C)(C)[C@@H]2C(=O)NO)cc1 | criterion met |
| CC1(C)C[C@@H](O)CN(S(=O)(=O)c2ccc(OCc3cccc(Br)c3)cc2)[C@H]1C(=O)NO | criterion not met |
